Reported growth is given for each of the following molecules.
Tested on: IGROV1 ovarian
Test: NCI-60 one-dose screen, 48 h (100 = growth as untreated, 0 = no growth, -100 = all killed)
Conditions: 10 µM unless noted
This is part of a sample that, as a whole, favours compounds with a hit. Of some 83,000 tested, about 20% had one in any assay.
MEASURED METRIC: growth (%)

MOLECULE	REPORTED
c1ccc2c(c1)Oc1ccccc1C2C1c2ccccc2Oc2ccccc21	91.5
COc1cccc2nc(Nc3ccc(NC(=O)c4ccc5ncccc5c4)cc3)ccc12	105
CCCS(=O)(=O)c1nc(NC2CC2)cc(-c2ccc3c(ccn3C3CC(C)(C)NC(C)(C)C3)c2)n1	-51
COc1ccc([N+](=O)[O-])c(/C=C/C(=O)c2ccccn2)c1	60.8
COC(=O)CCCCN=Cc1c(O)c(O)c(C(C)C)c2cc(C)c(-c3c(C)cc4c(C(C)C)c(O)c(O)c(C=NCCCCC(=O)OC)c4c3O)c(O)c12	26.4
O=C(Nc1ccc(Cl)cc1)c1cc(-c2ccc(F)cc2)c2sc(=O)[nH]c2n1	29.3
NS(=O)(=O)c1ccc(CN2C(=O)c3cccc4cccc(c34)C2=O)cc1	105
NC(=S)NN=C1CCCCC1	83.7
CCO/C=N/NC(=O)c1ccncc1	108
Clc1nc(Cl)c2ncn(C/C=C/Cn3cnc4c(Cl)nc(Cl)nc43)c2n1	17.7
O=S(=O)(NCCCNc1nccc(-c2c(-c3ccc(O)cc3)nc3sccn23)n1)c1ccc(F)cc1	5.53
COc1ncc(-c2ccc3ncnc(Nc4cccc(Cl)c4)c3c2)cc1NS(=O)(=O)CCN1CCOCC1	-36.9
O=S(=O)(NCCCNc1cc(-c2cn(-c3ccccc3)nc2-c2cccc(O)c2)ccn1)c1ccc(Br)cc1	22.4
COc1c(NC[C@H]2OC(O)[C@H](O)[C@@H](O)[C@@H]2O)c(=O)c1=O (stereo partly drawn)	120
O=C(Nc1ccc(Br)c(Cl)c1)c1cc(F)ccc1O	16.2
COc1cc(OC)c(C(=O)/C=C/c2cccc(C(F)(F)F)c2)c(OC)c1	11.8
Cc1c(C2=NNC(c3ccc4c(c3)OCO4)C2)[n+]([O-])c2ccccc2[n+]1[O-] (stereo not drawn)	84.4
O=C(OCCCCOC(=O)n1cnc2ccccc21)n1cnc2ccccc21	102
